- ASSAYED_TARGET: Receptor-type tyrosine-protein phosphatase F (Homo sapiens, UniProt P10586)
- Sequence (P10586 whole entry): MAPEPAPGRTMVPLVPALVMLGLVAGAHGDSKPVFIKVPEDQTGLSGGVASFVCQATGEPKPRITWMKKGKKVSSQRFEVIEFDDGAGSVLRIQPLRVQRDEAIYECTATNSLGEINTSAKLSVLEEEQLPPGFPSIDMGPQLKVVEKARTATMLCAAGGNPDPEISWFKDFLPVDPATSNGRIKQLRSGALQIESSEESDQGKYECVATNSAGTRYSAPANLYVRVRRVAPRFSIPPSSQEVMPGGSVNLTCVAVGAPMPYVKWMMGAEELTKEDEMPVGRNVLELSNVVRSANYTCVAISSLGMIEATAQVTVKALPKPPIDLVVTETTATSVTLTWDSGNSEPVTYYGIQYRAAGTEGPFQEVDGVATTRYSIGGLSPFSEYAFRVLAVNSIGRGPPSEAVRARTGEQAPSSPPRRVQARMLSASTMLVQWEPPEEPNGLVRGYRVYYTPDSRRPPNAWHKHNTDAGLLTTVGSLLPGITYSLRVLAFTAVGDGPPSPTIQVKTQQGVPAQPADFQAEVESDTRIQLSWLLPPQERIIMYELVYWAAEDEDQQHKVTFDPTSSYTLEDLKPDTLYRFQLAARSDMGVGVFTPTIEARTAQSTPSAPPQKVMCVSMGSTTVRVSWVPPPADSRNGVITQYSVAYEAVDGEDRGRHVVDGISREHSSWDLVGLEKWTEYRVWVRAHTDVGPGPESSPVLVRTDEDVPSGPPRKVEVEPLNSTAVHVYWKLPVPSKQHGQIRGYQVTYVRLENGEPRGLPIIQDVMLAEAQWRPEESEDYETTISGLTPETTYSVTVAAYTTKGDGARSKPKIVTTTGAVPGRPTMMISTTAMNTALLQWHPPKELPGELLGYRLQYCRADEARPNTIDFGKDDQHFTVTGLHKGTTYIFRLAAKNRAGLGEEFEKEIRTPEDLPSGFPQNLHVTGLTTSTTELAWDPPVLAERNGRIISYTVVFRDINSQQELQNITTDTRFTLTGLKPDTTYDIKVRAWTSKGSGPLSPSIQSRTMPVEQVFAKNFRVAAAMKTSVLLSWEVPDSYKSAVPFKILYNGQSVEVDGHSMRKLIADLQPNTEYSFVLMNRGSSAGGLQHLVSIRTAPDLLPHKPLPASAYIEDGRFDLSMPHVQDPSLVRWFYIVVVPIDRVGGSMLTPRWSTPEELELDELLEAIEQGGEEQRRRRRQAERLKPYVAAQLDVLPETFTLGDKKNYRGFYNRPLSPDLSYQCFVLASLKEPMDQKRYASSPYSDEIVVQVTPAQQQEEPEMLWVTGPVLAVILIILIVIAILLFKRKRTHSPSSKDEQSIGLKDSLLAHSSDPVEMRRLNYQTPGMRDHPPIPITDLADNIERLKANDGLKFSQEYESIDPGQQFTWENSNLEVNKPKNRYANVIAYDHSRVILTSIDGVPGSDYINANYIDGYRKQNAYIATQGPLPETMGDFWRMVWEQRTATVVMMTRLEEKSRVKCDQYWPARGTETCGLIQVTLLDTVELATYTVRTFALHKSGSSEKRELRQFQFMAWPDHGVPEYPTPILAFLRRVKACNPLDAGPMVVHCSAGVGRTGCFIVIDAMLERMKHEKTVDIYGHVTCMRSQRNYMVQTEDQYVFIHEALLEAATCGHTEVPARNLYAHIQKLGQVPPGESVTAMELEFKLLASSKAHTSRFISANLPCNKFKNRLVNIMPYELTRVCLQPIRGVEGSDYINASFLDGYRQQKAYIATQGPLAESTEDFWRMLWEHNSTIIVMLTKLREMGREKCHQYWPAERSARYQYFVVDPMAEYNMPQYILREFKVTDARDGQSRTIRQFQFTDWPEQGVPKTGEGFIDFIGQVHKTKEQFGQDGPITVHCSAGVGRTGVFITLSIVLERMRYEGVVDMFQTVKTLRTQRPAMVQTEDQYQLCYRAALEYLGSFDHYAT
OBSERVATION_TYPE: IC50

smiles_str=O=C1NC(=O)/C(=C/c2cc(Br)ccc2OCc2cc(C(F)(F)F)cc(C(F)(F)F)c2)S1 assayed_target="Receptor-type tyrosine-protein phosphatase F (Homo sapiens, UniProt P10586)" observation_type=IC50 value_observed="> 100 µM"

----------
- ASSAYED_TARGET: Tyrosine-protein phosphatase non-receptor type 1 (Homo sapiens)
pKi: −log10 of the molar value.
OBSERVATION_TYPE: pKi

smiles_str=O=C1NC(=O)/C(=C/c2cc(Br)ccc2OCc2cc(C(F)(F)F)cc(C(F)(F)F)c2)S1 observation_type=pKi value_observed=5.68

----------
- ASSAYED_TARGET: Tyrosine-protein phosphatase non-receptor type 2 (Homo sapiens)
pKi: −log10 of the molar value.
OBSERVATION_TYPE: pKi

smiles_str=O=C1NC(=O)/C(=C/c2cc(Br)ccc2OCc2cc(C(F)(F)F)cc(C(F)(F)F)c2)S1 value_observed=5.35

----------
- PROTOCOL_TEXT: Inhibition of yeast PTP1
- Parameters: species or system Saccharomyces cerevisiae
OBSERVATION_TYPE: IC50 (µM)

smiles_str=O=C1NC(=O)/C(=C/c2cc(Br)ccc2OCc2cc(C(F)(F)F)cc(C(F)(F)F)c2)S1 observation_type=IC50 value_unit=µM value_observed=18

----------
- PROTOCOL_TEXT: Inhibition of yeast PTP1
- Design: species or system Saccharomyces cerevisiae
pKi: −log10 of the molar value.
OBSERVATION_TYPE: pKi

smiles_str=O=C1NC(=O)/C(=C/c2cc(Br)ccc2OCc2cc(C(F)(F)F)cc(C(F)(F)F)c2)S1 observation_type=pKi value_observed=5.11

----------
- ASSAYED_TARGET: UniProt:P17706
- Sequence (P17706 whole entry): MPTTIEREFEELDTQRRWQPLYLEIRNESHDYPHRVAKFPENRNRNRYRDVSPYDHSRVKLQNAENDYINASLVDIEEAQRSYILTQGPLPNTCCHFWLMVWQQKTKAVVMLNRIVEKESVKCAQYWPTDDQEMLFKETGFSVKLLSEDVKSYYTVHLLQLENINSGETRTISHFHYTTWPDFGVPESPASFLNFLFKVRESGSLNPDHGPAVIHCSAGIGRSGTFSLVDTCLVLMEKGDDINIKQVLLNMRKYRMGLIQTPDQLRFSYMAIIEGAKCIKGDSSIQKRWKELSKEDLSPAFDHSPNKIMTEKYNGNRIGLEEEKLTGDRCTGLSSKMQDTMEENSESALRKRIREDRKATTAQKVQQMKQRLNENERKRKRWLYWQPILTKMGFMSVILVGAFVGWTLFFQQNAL
pIC50: −log10 of the molar value.
OBSERVATION_TYPE: pIC50

smiles_str=O=C1NC(=O)/C(=C/c2cc(Br)ccc2OCc2cc(C(F)(F)F)cc(C(F)(F)F)c2)S1 value_observed=4.80

----------
- ASSAYED_TARGET: Tyrosine-protein phosphatase non-receptor type 1 (Homo sapiens, UniProt P18031)
- Sequence (P18031 whole entry): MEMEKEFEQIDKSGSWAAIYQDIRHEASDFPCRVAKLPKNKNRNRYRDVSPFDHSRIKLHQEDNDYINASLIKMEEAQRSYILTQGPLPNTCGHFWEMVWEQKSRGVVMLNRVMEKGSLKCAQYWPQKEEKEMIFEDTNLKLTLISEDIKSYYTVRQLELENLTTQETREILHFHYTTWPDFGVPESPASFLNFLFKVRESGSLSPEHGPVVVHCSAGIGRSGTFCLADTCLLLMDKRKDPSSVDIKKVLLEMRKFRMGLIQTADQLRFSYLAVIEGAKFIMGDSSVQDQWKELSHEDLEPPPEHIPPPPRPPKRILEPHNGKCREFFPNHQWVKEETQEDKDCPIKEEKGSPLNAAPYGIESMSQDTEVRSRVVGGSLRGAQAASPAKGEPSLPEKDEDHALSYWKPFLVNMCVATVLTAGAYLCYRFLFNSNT
Friendly reminder: IC50 below 20 µM is T, at or above is F.

compound=O=C1NC(=O)/C(=C/c2cc(Br)ccc2OCc2cc(C(F)(F)F)cc(C(F)(F)F)c2)S1 assigned_label=T
compound=O=C1NC(=O)/C(=C/c2cc(F)ccc2OCc2cc(C(F)(F)F)cc(C(F)(F)F)c2)S1 assigned_label=T
compound="CCc1ccc(CCOc2ccc(CC3SC(=O)NC3=O)cc2)nc1 (centres undefined)" assigned_label=F
compound=O=C1NC(=O)/C(=C/c2ccc(OCc3ccccc3)cc2)S1 assigned_label=F
compound=O=C1NC(=O)/C(=C/c2ccc(OCc3ccccc3)c(-c3ccccc3)c2)S1 assigned_label=T
compound=O=C1NC(=O)/C(=C/c2cc(Br)ccc2OCc2ccccc2C(F)(F)F)S1 assigned_label=T
compound="CN(CCOc1ccc(CC2SC(=O)NC2=O)cc1)c1ccccn1 (centres undefined)" assigned_label=F
compound=O=C1NC(=O)/C(=C/c2cc(Br)ccc2OCc2cccc(C(F)(F)F)c2)S1 assigned_label=T
compound=O=C1NC(=O)/C(=C/c2cc(-c3ccccc3)ccc2OCc2ccccc2)S1 assigned_label=T
compound="Cc1c(C)c2c(c(C)c1O)CCC(C)(COc1ccc(CC3SC(=O)NC3=O)cc1)O2 (centres undefined)" assigned_label=F
compound=O=C1NC(=O)/C(=C/c2ccc(OCc3ccccc3)c(Br)c2)S1 assigned_label=T
compound=O=C1NC(=O)/C(=C/c2cc(Br)ccc2OCc2ccc(F)cc2)S1 assigned_label=F
compound=O=C1NC(=O)/C(=C/c2cc(Br)ccc2OCc2ccccc2)S1 assigned_label=T
compound=O=C1NC(=O)/C(=C/c2ccc(OCc3ccc(F)cc3)cc2)S1 assigned_label=F
